- target.entity: UniProt P98073
- Sequence (P98073 2-784 limits assumed): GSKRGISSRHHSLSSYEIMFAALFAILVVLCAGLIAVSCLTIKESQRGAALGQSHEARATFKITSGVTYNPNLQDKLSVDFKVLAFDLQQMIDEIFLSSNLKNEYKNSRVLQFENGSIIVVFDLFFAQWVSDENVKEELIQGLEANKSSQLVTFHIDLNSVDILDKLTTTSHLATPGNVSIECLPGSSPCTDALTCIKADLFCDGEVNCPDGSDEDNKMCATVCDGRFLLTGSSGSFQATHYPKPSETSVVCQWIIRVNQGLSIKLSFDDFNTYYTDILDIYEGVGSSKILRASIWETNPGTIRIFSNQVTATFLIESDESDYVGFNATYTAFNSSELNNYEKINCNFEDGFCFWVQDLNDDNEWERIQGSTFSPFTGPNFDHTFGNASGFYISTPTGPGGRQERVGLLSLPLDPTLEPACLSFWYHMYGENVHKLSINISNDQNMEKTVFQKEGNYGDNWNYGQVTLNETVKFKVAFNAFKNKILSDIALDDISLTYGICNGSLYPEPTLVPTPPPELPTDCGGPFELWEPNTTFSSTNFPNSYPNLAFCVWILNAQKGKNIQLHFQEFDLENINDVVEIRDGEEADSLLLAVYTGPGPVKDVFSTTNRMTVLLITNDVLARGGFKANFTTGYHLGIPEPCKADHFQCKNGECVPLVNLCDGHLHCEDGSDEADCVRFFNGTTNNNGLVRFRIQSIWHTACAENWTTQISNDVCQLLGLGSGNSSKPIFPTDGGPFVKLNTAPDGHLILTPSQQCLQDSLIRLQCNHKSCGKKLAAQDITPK
- Sequence (P98073 785-1019 limits assumed): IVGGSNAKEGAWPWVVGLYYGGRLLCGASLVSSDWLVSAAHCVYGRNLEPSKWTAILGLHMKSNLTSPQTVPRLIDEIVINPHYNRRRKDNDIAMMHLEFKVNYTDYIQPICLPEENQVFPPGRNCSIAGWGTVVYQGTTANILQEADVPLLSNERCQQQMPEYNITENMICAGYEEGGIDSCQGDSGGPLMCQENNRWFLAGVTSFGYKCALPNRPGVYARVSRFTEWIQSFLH
- assay.overview: Inhibition of full length recombinant human EP expressed in CHO cells assessed as protease activity using […] as substrate at 10 uM by fluorescence assay relative to control
- Design: scale not given: the % may be the effect or the level left
Listed next: entries and their corresponding Activity.
quantity.kind: Activity (%)

N=C(N)Nc1ccc(C(=O)Oc2ccc(CC(=O)NC(CC(=O)O)(CC(=O)O)CC(=O)O)n3ncnc23)cc1 : 100
Cc1cc(C(=O)Oc2ccc(CC(=O)O)n3ncnc23)ccc1NC(=N)N : 36.7
C/C(=N\O)Nc1ccc(C(=O)Oc2ccc(CC(=O)O)n3ncnc23)cc1 : -10.8
N=C(N)Nc1ccc(C(=O)Oc2ccc(CCC(=O)O)n3ncnc23)cc1 : 100
N=C(N)Nc1ccc(C(=O)Oc2ccc(CC(=O)O)n3ncnc23)c2ccoc12 : 100
CS(=O)(=O)NC(=O)Cc1ccc(OC(=O)c2ccc(NC(=N)N)cc2)c2ncnn12 : 100
N=C(N)Nc1ccc(C(=O)Oc2ccc(CC(=O)O)n3ncnc23)c(C(F)(F)F)c1 : 98.9
N=C(N)Nc1ccc(C(=O)Oc2ccc(Cc3nn[nH]n3)n3ncnc23)cc1 : 100
N=C(NN)c1ccc(C(=O)Oc2ccc(CC(=O)O)n3ncnc23)cc1 : 51.8
N=C(N)Nc1ncc(C(=O)Oc2ccc(CC(=O)O)n3ncnc23)cn1 : 100
